- TESTED TARGET: T1, LexA-Cdk3 bait (human, UniProt Q00526 1-305, limits assumed)
- T1 construct: also called human Cdk3; not shown: bacterial LexA protein
- T1 sequence (Q00526 whole entry): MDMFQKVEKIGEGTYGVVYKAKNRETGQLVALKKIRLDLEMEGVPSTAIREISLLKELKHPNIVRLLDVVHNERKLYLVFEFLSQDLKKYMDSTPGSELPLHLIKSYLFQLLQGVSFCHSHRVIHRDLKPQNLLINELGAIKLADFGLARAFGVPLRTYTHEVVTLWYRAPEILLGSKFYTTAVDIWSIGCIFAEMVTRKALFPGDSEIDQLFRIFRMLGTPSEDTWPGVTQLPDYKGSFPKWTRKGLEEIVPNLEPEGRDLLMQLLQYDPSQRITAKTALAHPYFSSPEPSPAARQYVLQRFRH
- TEST DESCRIPTION: yeast interaction trap mating assay, lacZ reporter on Xgal

>  <BINDER>
pep13 (FIG. 4B numbering), thioredoxin prey fusion (designed binder, not shown: large carriers) MSDKIIHLTDDSFDTDVLKADGAILVDFWAEWCGPPVCCMMYGHRTAPHSVFNVDGPCKMIAPILDEIADEYQGKLTVAKLNIDQNPGTAPKYGIRGIPTLLLFKNGEVAATKVGALSKGQLKEFLDANLA

>  <binding result>
no binding

$$$$
>  <BINDER>
pep6 (FIG. 4B numbering), thioredoxin prey fusion (designed binder, not shown: large carriers) MSDKIIHLTDDSFDTDVLKADGAILVDFWAEWCGPRVKLGYSFWAQSLLRCISVGGPCKMIAPILDEIADEYQGKLTVAKLNIDQNPGTAPKYGIRGIPTLLLFKNGEVAATKVGALSKGQLKEFLDANLA

>  <binding result>
no binding

$$$$
